pKi: −log10 of the molar value.
What follows is a collection of pKi values obtained with Bcl-2-like protein 1 (Homo sapiens, UniProt Q07817).
Sequence (Q07817 whole entry): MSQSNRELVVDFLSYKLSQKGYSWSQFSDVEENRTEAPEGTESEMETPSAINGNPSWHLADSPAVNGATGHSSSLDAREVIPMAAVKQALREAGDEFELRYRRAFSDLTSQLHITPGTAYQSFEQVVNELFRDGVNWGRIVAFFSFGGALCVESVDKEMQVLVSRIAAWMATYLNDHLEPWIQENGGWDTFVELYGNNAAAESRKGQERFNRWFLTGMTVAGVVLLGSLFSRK
property_label: pKi

Answered cases to consult:
O=C(NS(=O)(=O)c1ccc(NCCSc2ccccc2)c([N+](=O)[O-])c1)c1ccc(C(=O)c2ccccc2)cc1 | 6.48
O=C(CCc1ccccc1)Nc1ccc(C(=O)NS(=O)(=O)c2ccc(NCCSc3ccccc3)c([N+](=O)[O-])c2)cc1 | 6.49

P: O=C(/C=C/c1ccc(Cl)cc1)Nc1ccc(C(=O)NS(=O)(=O)c2ccc(NCCSc3ccccc3)c([N+](=O)[O-])c2)cc1
Q: O=C(/C=C/c1ccccc1Cl)Nc1ccc(C(=O)NS(=O)(=O)c2ccc(NCCSc3ccccc3)c([N+](=O)[O-])c2)cc1
R: O=C(Nc1ccc(C(=O)NS(=O)(=O)c2ccc(NCCSc3ccccc3)c([N+](=O)[O-])c2)cc1)c1ccccc1
Rank descending by pKi. Please express your ranking as an ordered list of the labels.
Q, P, R
(Q: 6.92, P: 6.68, R: 6.20)

###

Species: Homo sapiens
Test: Selectivity index, ratio of Ki for Bcl-2 (unknown origin) to Ki for MCL-1 (unknown origin)
property_label: Ratio Ki

Cc1ccc(/C=C/C(=O)Nc2ccc(C(=O)NS(=O)(=O)c3ccc(NCCSc4ccccc4)c([N+](=O)[O-])c3)cc2)cc1 | 2
O=C(/C=C/c1ccc(C(F)(F)F)cc1)Nc1ccc(C(=O)NS(=O)(=O)c2ccc(NCCSc3ccccc3)c([N+](=O)[O-])c2)cc1 | 1
O=C(CCc1ccccc1)Nc1ccc(C(=O)NS(=O)(=O)c2ccc(NCCSc3ccccc3)c([N+](=O)[O-])c2)cc1 | 1
COc1ccc(/C=C/C(=O)Nc2ccc(C(=O)NS(=O)(=O)c3ccc(NCCSc4ccccc4)c([N+](=O)[O-])c3)cc2)cc1 | 2

1: O=C(NS(=O)(=O)c1ccc(NCCSc2ccccc2)c([N+](=O)[O-])c1)c1ccc(C(=O)c2ccccc2)cc1
2: C=C(c1ccc(C(=O)Nc2ccc(C(=O)NS(=O)(=O)c3ccc(NCCSc4ccccc4)c([N+](=O)[O-])c3)cc2)cc1)c1cc2c(cc1C)C(C)(C)CCC2(C)C
3: COc1cccc(/C=C/C(=O)Nc2ccc(C(=O)NS(=O)(=O)c3ccc(NCCSc4ccccc4)c([N+](=O)[O-])c3)cc2)c1
4: Cc1cccc(/C=C/C(=O)Nc2ccc(C(=O)NS(=O)(=O)c3ccc(NCCSc4ccccc4)c([N+](=O)[O-])c3)cc2)c1
5: C=C(c1ccc(C(=O)NS(=O)(=O)c2ccc(NCCSc3ccccc3)c([N+](=O)[O-])c2)cc1)c1cc2c(cc1C)C(C)(C)CCC2(C)C
Rank ascending by Ratio Ki. # the answer lists labels in the order requested
1, 3, 4, 2, 5
(1: 1, 3: 2, 4: 4, 2: 11, 5: 70)

###

Molecular target: Induced myeloid leukemia cell differentiation protein Mcl-1 (Homo sapiens, UniProt Q07820)
Sequence (Q07820 whole entry): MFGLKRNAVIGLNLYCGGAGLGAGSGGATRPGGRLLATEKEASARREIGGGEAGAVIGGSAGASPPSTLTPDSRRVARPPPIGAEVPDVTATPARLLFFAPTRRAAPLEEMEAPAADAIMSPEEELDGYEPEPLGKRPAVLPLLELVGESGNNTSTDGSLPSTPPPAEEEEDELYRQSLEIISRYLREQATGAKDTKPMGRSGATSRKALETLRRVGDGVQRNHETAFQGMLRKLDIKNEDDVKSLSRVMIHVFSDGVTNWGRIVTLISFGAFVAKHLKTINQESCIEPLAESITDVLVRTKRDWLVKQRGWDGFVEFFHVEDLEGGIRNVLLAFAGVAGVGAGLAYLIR
Experiment: Inhibition of 5-FAM-Bid peptide binding to MCL-1 (unknown origin) by fluorescence polarization assay
pKi: −log10 of the molar value.
property_label: pKi

// below: answered compounds
O=C(/C=C/c1ccccc1C(F)(F)F)Nc1ccc(C(=O)NS(=O)(=O)c2ccc(NCCSc3ccccc3)c([N+](=O)[O-])c2)cc1 | 6.18
Cc1cc2c(C(C)C)c(O)c(O)c(C=O)c2c(O)c1-c1c(C)cc2c(C(C)C)c(O)c(O)c(C=O)c2c1O | 6.19

1: Cc1ccccc1/C=C/C(=O)Nc1ccc(C(=O)NS(=O)(=O)c2ccc(NCCSc3ccccc3)c([N+](=O)[O-])c2)cc1
2: C=C(c1ccc(C(=O)NS(=O)(=O)c2ccc(NCCSc3ccccc3)c([N+](=O)[O-])c2)cc1)c1cc2c(cc1C)C(C)(C)CCC2(C)C
3: C=C(c1ccc(C(=O)Nc2ccc(C(=O)NS(=O)(=O)c3ccc(NCCSc4ccccc4)c([N+](=O)[O-])c3)cc2)cc1)c1cc2c(cc1C)C(C)(C)CCC2(C)C
Sort entries by pKi from minimum to maximum value. Write out the labels following the order that was asked for.
1, 3, 2

###

Target: Induced myeloid leukemia cell differentiation protein Mcl-1 (Homo sapiens)
Test: Inhibition of 5-FAM-Bid peptide binding to MCL-1 (unknown origin) by fluorescence polarization assay
pKi: −log10 of the molar value.
property_label: pKi

Cc1ccc(/C=C/C(=O)Nc2ccc(C(=O)NS(=O)(=O)c3ccc(NCCSc4ccccc4)c([N+](=O)[O-])c3)cc2)cc1 | 6.20

A: COc1ccc(/C=C/C(=O)Nc2ccc(C(=O)NS(=O)(=O)c3ccc(NCCSc4ccccc4)c([N+](=O)[O-])c3)cc2)cc1
B: O=C(Cc1ccccc1)Nc1ccc(C(=O)NS(=O)(=O)c2ccc(NCCSc3ccccc3)c([N+](=O)[O-])c2)cc1
C: O=C(/C=C/c1ccc(C(F)(F)F)cc1)Nc1ccc(C(=O)NS(=O)(=O)c2ccc(NCCSc3ccccc3)c([N+](=O)[O-])c2)cc1
Arrange by pKi, high to low. Could you list the labels in the order requested?
A, C, B

###

Reported pIC50 is given for each of the following molecules.
Assay: Growth inhibition of human HL60 cells after 72 hrs by MTT assay
Assay type: functional, cell-based
Conditions: HL-60, 72 h
Friendly reminder that pIC50 comes from taking -log10 of the concentration in mol/L.

Example entries and their recorded answers appear below.
CN(C)CC[C@H](CSc1ccccc1)Nc1ccc(S(=O)(=O)NC(=O)c2ccc(N3CCN(Cc4ccccc4-c4ccc(Cl)cc4)CC3)cc2)cc1[N+](=O)[O-] | 6.01
C=C(c1ccc(C(=O)NS(=O)(=O)c2ccc(NCCSc3ccccc3)c([N+](=O)[O-])c2)cc1)c1cc2c(cc1C)C(C)(C)CCC2(C)C | 5.31

Field: next molecule
For the molecule C=C(c1ccc(C(=O)Nc2ccc(C(=O)NS(=O)(=O)c3ccc(NCCSc4ccccc4)c([N+](=O)[O-])c3)cc2)cc1)c1cc2c(cc1C)C(C)(C)CCC2(C)C , report pIC50.
5.53

###

Molecular target: UniProt:P10415
Sequence (P10415 whole entry): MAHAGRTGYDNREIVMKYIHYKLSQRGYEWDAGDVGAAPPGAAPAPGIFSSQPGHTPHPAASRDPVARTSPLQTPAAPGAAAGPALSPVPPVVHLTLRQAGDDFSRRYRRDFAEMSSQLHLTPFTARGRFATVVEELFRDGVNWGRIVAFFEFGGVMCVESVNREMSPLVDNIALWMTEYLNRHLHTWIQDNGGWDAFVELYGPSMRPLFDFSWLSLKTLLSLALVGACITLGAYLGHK
Test: Inhibition of 5-FAM-Bid peptide binding to Bcl-2 (unknown origin) by fluorescence polarization assay
pKi: −log10 of the molar value.
property_label: pKi

COc1ccc(/C=C/C(=O)Nc2ccc(C(=O)NS(=O)(=O)c3ccc(NCCSc4ccccc4)c([N+](=O)[O-])c3)cc2)cc1 | 5.89
C=C(c1ccc(C(=O)Nc2ccc(C(=O)NS(=O)(=O)c3ccc(NCCSc4ccccc4)c([N+](=O)[O-])c3)cc2)cc1)c1cc2c(cc1C)C(C)(C)CCC2(C)C | 5.51
Cc1ccccc1/C=C/C(=O)Nc1ccc(C(=O)NS(=O)(=O)c2ccc(NCCSc3ccccc3)c([N+](=O)[O-])c2)cc1 | 5.77

I: O=C(/C=C/c1ccccc1)Nc1ccc(C(=O)NS(=O)(=O)c2ccc(NCCSc3ccccc3)c([N+](=O)[O-])c2)cc1
II: O=C(/C=C/c1cccc(Cl)c1)Nc1ccc(C(=O)NS(=O)(=O)c2ccc(NCCSc3ccccc3)c([N+](=O)[O-])c2)cc1
III: COc1ccccc1/C=C/C(=O)Nc1ccc(C(=O)NS(=O)(=O)c2ccc(NCCSc3ccccc3)c([N+](=O)[O-])c2)cc1
IV: O=C(/C=C/c1cccc(C(F)(F)F)c1)Nc1ccc(C(=O)NS(=O)(=O)c2ccc(NCCSc3ccccc3)c([N+](=O)[O-])c2)cc1
// sort entries: pKi, high to low Output the labels ranked as instructed.
III, II, IV, I

###

Molecular target: Induced myeloid leukemia cell differentiation protein Mcl-1 (Homo sapiens, UniProt Q07820)
Assay: Inhibition of 5-FAM-Bid peptide binding to MCL-1 (unknown origin) by fluorescence polarization assay
pKi: −log10 of the molar value.
property_label: pKi

// solved cases for pKi follow
Cc1cccc(/C=C/C(=O)Nc2ccc(C(=O)NS(=O)(=O)c3ccc(NCCSc4ccccc4)c([N+](=O)[O-])c3)cc2)c1 | 6.36
O=C(/C=C/c1ccc(Cl)cc1)Nc1ccc(C(=O)NS(=O)(=O)c2ccc(NCCSc3ccccc3)c([N+](=O)[O-])c2)cc1 | 5.57
O=C(CCc1ccccc1)Nc1ccc(C(=O)NS(=O)(=O)c2ccc(NCCSc3ccccc3)c([N+](=O)[O-])c2)cc1 | 5.16
O=C(NS(=O)(=O)c1ccc(NCCSc2ccccc2)c([N+](=O)[O-])c1)c1ccc(C(=O)c2ccccc2)cc1 | 5.40

1: O=C(/C=C/c1cccc(Cl)c1)Nc1ccc(C(=O)NS(=O)(=O)c2ccc(NCCSc3ccccc3)c([N+](=O)[O-])c2)cc1
2: O=C(Nc1ccc(C(=O)NS(=O)(=O)c2ccc(NCCSc3ccccc3)c([N+](=O)[O-])c2)cc1)c1ccccc1
Which entry has a larger number for pKi, 1 or 2 ? Pick one; state its label.
1
(1: 5.89, 2: 5.17)

###

Organism: Homo sapiens
Assay: Selectivity index, ratio of Ki for Bcl-2 (unknown origin) to Ki for MCL-1 (unknown origin)
property_label: Ratio Ki

Below are worked cases with known answers.
O=C(/C=C/c1ccccc1)Nc1ccc(C(=O)NS(=O)(=O)c2ccc(NCCSc3ccccc3)c([N+](=O)[O-])c2)cc1 | 3
O=C(/C=C/c1ccccc1C(F)(F)F)Nc1ccc(C(=O)NS(=O)(=O)c2ccc(NCCSc3ccccc3)c([N+](=O)[O-])c2)cc1 | 3
O=C(Cc1ccccc1)Nc1ccc(C(=O)NS(=O)(=O)c2ccc(NCCSc3ccccc3)c([N+](=O)[O-])c2)cc1 | 1

a: O=C(/C=C/c1cccc(Cl)c1)Nc1ccc(C(=O)NS(=O)(=O)c2ccc(NCCSc3ccccc3)c([N+](=O)[O-])c2)cc1
b: Cc1ccccc1/C=C/C(=O)Nc1ccc(C(=O)NS(=O)(=O)c2ccc(NCCSc3ccccc3)c([N+](=O)[O-])c2)cc1
Just curious, which one has the larger Ratio Ki reading, a or b ? Record your answer as the label of the chosen record.
b
(b: 2, a: 1)
